# assayed_target: T1, TNFR1 (Homo sapiens, UniProt P19438)
# T1 chain: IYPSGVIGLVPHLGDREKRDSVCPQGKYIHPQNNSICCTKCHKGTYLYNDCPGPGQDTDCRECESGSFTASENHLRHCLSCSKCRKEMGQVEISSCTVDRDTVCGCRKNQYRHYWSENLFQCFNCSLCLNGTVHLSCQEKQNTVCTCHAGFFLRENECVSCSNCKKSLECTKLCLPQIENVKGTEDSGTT
# method_summary: yeast display SC50

# binder, apparent Kd (screen)
measured = [
    ("Y70W (designed binder) SMEEEVEKAAKEYEKKKKEAIEKHLEKLKAKDKEAAERFLKELEEAAKEYAKDEAKTMSEEEAKRRAKKWKEKVLLSELSEEEQKEIKEAEEKLVRTILKYVEEAAK", "8.56 nM"),
    ("E83I (designed binder) SMEEEVEKAAKEYEKKKKEAIEKHLEKLKAKDKEAAERFLKELEEAAKEYAKDEAKTMSEEEAKRRAKKYKEKVLLSELSEEIQKEIKEAEEKLVRTILKYVEEAAK", "0.446 nM"),
    ("K100W (designed binder) SMEEEVEKAAKEYEKKKKEAIEKHLEKLKAKDKEAAERFLKELEEAAKEYAKDEAKTMSEEEAKRRAKKYKEKVLLSELSEEEQKEIKEAEEKLVRTILWYVEEAAK", "1.05 nM"),
    ("E3F (designed binder) SMFEEVEKAAKEYEKKKKEAIEKHLEKLKAKDKEAAERFLKELEEAAKEYAKDEAKTMSEEEAKRRAKKYKEKVLLSELSEEEQKEIKEAEEKLVRTILKYVEEAAK", "20.2 nM"),
]
